Molecular target: T1, BL6 mouse SIRP-α (mouse (C57BL/6 strain), UniProt P97797 32-148)
T1 construct: also called C57BL/6
T1 sequence: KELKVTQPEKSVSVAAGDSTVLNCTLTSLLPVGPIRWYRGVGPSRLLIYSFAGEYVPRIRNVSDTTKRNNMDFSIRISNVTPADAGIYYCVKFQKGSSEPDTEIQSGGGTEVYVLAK
Assay: SPR, antibody on GLC chip
Recorded endpoint: pKd
Please treat pKd as minus the base-10 logarithm of the molar concentration.

>>> value_reported("antibody 136 variant, light chain Mut_Q38E / heavy chain Mut (antibody, V domains shown) VH: EVQLVESGGGVVQPGRSLRLSCAASGFTFSSYDVNWVRQAPGKGLEWVSLISGSGEIIYYADSVKGRFTISRDNSKNTLYLQMNSLRAEDTAVYYCAKENNRYRFFDDWGQGTLVTVSS VL: EIVLTQSPGTLSLSPGERATLSCRASQSVYTYLAWYQEKPGQAPRLLIYGASSRATGIPDRFSGSGSGTEFTLTISSLQSEDFAVYYCQQYYDRPPLTFGGGTKVEIK")
7.48
>>> value_reported("antibody 136 variant, light chain Mut_I2T / heavy chain Mut (antibody, V domains shown) VH: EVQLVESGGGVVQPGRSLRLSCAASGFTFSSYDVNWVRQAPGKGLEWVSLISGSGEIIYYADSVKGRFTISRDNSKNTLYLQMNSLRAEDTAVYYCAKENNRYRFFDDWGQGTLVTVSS VL: ETVLTQSPGTLSLSPGERATLSCRASQSVYTYLAWYQQKPGQAPRLLIYGASSRATGIPDRFSGSGSGTEFTLTISSLQSEDFAVYYCQQYYDRPPLTFGGGTKVEIK")
7.82
>>> value_reported("antibody 136 variant, light chain Mut_S22T / heavy chain Mut (antibody, V domains shown) VH: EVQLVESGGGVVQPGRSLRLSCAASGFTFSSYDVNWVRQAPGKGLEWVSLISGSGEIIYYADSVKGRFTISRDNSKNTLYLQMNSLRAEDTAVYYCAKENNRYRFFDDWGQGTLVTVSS VL: EIVLTQSPGTLSLSPGERATLTCRASQSVYTYLAWYQQKPGQAPRLLIYGASSRATGIPDRFSGSGSGTEFTLTISSLQSEDFAVYYCQQYYDRPPLTFGGGTKVEIK")
7.88
>>> value_reported("antibody 136 variant, light chain Mut_I2T / heavy chain Mut_V34M (antibody, V domains shown) VH: EVQLVESGGGVVQPGRSLRLSCAASGFTFSSYDMNWVRQAPGKGLEWVSLISGSGEIIYYADSVKGRFTISRDNSKNTLYLQMNSLRAEDTAVYYCAKENNRYRFFDDWGQGTLVTVSS VL: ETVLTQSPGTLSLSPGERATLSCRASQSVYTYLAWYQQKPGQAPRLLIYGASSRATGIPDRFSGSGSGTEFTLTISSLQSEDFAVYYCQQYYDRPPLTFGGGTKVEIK")
7.86
>>> value_reported("antibody 136 variant, light chain Mut_S12T / heavy chain Mut (antibody, V domains shown) VH: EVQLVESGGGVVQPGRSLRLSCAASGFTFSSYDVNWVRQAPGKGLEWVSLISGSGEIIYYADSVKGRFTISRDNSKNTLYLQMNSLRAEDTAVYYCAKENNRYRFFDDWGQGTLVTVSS VL: EIVLTQSPGTLTLSPGERATLSCRASQSVYTYLAWYQQKPGQAPRLLIYGASSRATGIPDRFSGSGSGTEFTLTISSLQSEDFAVYYCQQYYDRPPLTFGGGTKVEIK")
7.79
>>> value_reported("antibody 136 variant, light chain wt / heavy chain Mut (antibody, V domains shown) VH: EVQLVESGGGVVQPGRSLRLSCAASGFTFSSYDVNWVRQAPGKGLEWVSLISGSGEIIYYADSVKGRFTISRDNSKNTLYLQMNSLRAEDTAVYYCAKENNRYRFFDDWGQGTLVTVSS VL: ETVLTQSPGTLTLSPGERATLTCRASQSVYTYLAWYQEKPGQAPRLLIYGASSRATGIPDRFSGSGSGTEFTLTISSLQSEDFAVYYCQQYYDRPPLTFGGGTKVEIK")
7.64

Req: I have this binder here, antibody 136 variant, light chain Mut / heavy chain Mut (antibody, V domains shown) VH: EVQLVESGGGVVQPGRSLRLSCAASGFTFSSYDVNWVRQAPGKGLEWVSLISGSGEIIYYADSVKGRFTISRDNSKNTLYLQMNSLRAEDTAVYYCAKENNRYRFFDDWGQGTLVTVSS VL: EIVLTQSPGTLSLSPGERATLSCRASQSVYTYLAWYQQKPGQAPRLLIYGASSRATGIPDRFSGSGSGTEFTLTISSLQSEDFAVYYCQQYYDRPPLTFGGGTKVEIK , and I need its recorded pKd.
Resp: 7.50
